Conditions: buffer; pH 7.4; 200.0 µM
measurement.label: solubility kinetic (mg/mL)
Give just the number in mg/mL; leave the unit off.

Output measured solubility kinetic for this item: `Cc1ccc(NC(=S)NCCc2c[nH]c3ccccc23)c(C)c1` 0.0204

Now look at this entry.
Output measured solubility kinetic for this item: CCOC(=O)C1CCCN(C/C=C/c2ccccc2)C1 (configuration not stated) 0.0205

----------
Conditions: buffer; pH 7.4; 200.0 µM
Output t for solubility kinetic not less than 20 µg/mL; output f otherwise.

Kindly determine if solubility kinetic recorded for `N#CCCN(C(=S)NC(=O)C1CCCCC1)c1ccccc1F` is above or exactly 20 µg/mL. t

Kindly determine if solubility kinetic recorded for `NC(=O)c1ccc(NC(=O)CN2C(=O)NC3(CCCCCCC3)C2=O)cc1` is above or exactly 20 µg/mL. t

Kindly determine if solubility kinetic recorded for `COc1cc(C(=O)OCCNC(=O)c2ccccc2)cc(OC)c1OC` is above or exactly 20 µg/mL. t

Kindly determine if solubility kinetic recorded for `Cc1cc(=O)oc2cc(OCCSCCN3CCCC3)ccc12` is above or exactly 20 µg/mL. t

Kindly determine if solubility kinetic recorded for `Cc1ccc(NC(=O)c2ccccc2NC(=O)c2cccnc2)cc1` is above or exactly 20 µg/mL. f

Kindly determine if solubility kinetic recorded for `O=C(NC1CCCC1)c1cc(COc2ccc3ncccc3c2)on1` is above or exactly 20 µg/mL. t

Kindly determine if solubility kinetic recorded for `O=[N+]([O-])c1ccc(Nc2nccc(Cl)n2)cc1` is above or exactly 20 µg/mL. f

Kindly determine if solubility kinetic recorded for CC(OC(=O)CCCC(=O)Nc1ccccc1)C(=O)c1ccccc1 (stereo unspecified) is above or exactly 20 µg/mL. t

Kindly determine if solubility kinetic recorded for NCC(c1ccccc1)c1c[nH]c2ccccc12 (stereo unspecified) is above or exactly 20 µg/mL. t

Kindly determine if solubility kinetic recorded for `CC(=O)c1cccc(NC(=O)CCC(=O)Oc2ccc(C)cc2)c1` is above or exactly 20 µg/mL. t

Kindly determine if solubility kinetic recorded for `O=S1(=O)c2cccc3cccc(c23)N1CCBr` is above or exactly 20 µg/mL. f

Kindly determine if solubility kinetic recorded for `CC(=O)c1c(C)[nH]c(C(=O)Nc2cc(F)ccc2C)c1C` is above or exactly 20 µg/mL. f
